This collection of values is drawn from patent US20250213684A1.

target_or_test_system: TIM-3 (antigen; species and construct not stated for the assay) (UniProt Q8TDQ0 22-202, limits assumed)
assay_comment: SPR (Biacore), run of Apr. 7, 2014
The reader will find reported Kd values listed item by item below.
experimental_endpoint: Kd (pM)

[[record]]
binder = "ABTIM3-hum01 (antibody, human IgG4 S228P, kappa, V domains shown, Humanized) VH: QVQLVQSGAEVKKPGASVKVSCKASGYTFTSYNMHWVRQAPGQGLEWIGDIYPGNGDTSYNQKFKGRATMTADKSTSTVYMELSSLRSEDTAVYYCARVGGAFPMDYWGQGTLVTVSS VL: DIVLTQSPDSLAVSLGERATINCRASESVEYYGTSLMQWYQQKPGQPPKLLIYAASNVESGVPDRFSGSGSGTDFTLTISSLQAEDVAVYYCQQSRKDPSTFGGGTKVEIKR"
experimental_endpoint = "Kd"
u = "pM"
test_result = 103

[[record]]
binder = "ABTIM3-hum04 (antibody, human IgG4 S228P, kappa, V domains shown, Humanized) VH: QVQLVQSGAEVKKPGASVKVSCKASGYTFTSYNMHWIRQAPGQGLEWIGDIYPGNGDTSYNQKFKGRATLTADKSTSTVYMELSSLRSEDTAVYYCARVGGAFPMDYWGQGTLVTVSS VL: DIVLTQSPDSLAVSLGERATINCRASESVEYYGTSLMQWYQQKPGQPPKLLIYAASNVESGVPDRFSGSGSGTDFTLTISSLQAEDVAVYFCQQSRKDPSTFGGGTKVEIKR"
experimental_endpoint = "Kd"
u = "pM"
test_result = 216

[[record]]
binder = "ABTIM3-hum07 (antibody, human IgG4 S228P, kappa, V domains shown, Humanized) VH: QVQLVQSGAEVKKPGASVKVSCKASGYTFTSYNMHWIRQAPGQGLEWIGDIYPGNGDTSYNQKFKGRATLTADKSTSTVYMELSSLRSEDTAVYYCARVGGAFPMDYWGQGTLVTVSS VL: DIVLTQSPDSLAVSLGERATINCRASESVEYYGTSLMQWYQQKPGQPPKLLIYAASNVESGVPDRFSGSGSGTDFTLTISSLQAEDVAVYYCQQSRKDPSTFGGGTKVEIKR"
experimental_endpoint = "Kd"
u = "pM"
test_result = 135

[[record]]
binder = "ABTIM3-hum08 (antibody, human IgG4 S228P, kappa, V domains shown, Humanized) VH: QVQLVQSGAEVKKPGASVKVSCKASGYTFTSYNMHWVRQAPGQGLEWIGDIYPGNGDTSYNQKFKGRATMTADKSTSTVYMELSSLRSEDTAVYYCARVGGAFPMDYWGQGTLVTVSS VL: DIVLTQSPDSLAVSLGERATINCRASESVEYYGTSLMQWYQQKPGQPPKLLIYAASNVESGVPDRFSGSGSGTDFTLTISSLQAEDVAVYFCQQSRKDPSTFGGGTKVEIKR"
experimental_endpoint = "Kd"
u = "pM"
test_result = 123

